- Tested on: Male Sprague-Dawley rats
- ASSAY_METHOD_TEXT: Rat Forced Swim Test (FST)
- Type: in vivo
- CONDITION_PARAMETERS: 10 mg/kg p.o., single administration 1 hr before 5 min test
VALUE_KIND: Diving

Q: Return Diving for the following compound: CN(C)c1cc(Nc2ccc(Cl)c(Cl)c2)nc(N2CCN(Cc3ccccc3)CC2)n1 [EX151]
Result: 0.3 ± 0.2 counts

---

- TARGET_DESC: 5HT transporter (Rattus norvegicus)
- Sequence (P31652 whole entry): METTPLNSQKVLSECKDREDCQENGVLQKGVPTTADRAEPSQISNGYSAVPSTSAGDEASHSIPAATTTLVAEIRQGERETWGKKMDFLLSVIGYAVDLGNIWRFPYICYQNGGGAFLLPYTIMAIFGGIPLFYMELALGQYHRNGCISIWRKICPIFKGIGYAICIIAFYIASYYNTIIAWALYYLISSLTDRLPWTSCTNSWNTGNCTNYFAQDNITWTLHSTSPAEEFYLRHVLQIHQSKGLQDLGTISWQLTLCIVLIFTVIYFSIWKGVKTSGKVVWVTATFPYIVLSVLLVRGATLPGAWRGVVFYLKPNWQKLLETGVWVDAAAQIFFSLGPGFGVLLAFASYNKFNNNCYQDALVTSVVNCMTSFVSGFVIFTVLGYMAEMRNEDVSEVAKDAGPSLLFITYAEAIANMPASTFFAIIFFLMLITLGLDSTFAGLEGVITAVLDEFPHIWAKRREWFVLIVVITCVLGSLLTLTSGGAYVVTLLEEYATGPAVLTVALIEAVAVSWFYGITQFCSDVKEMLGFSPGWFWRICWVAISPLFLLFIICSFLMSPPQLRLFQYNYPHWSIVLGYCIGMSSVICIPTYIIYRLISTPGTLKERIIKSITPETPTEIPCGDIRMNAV
VALUE_KIND: Ki (µM)
A number alone suffices; assume µM.

Q: Using 5HT transporter (Rattus norvegicus) as the test system, report measured Ki of O=C1C(=Nc2cccc(C(F)(F)F)c2)c2ccccc2N1c1ccccc1 .
Result: 45.1
